B1: P2RY14 (parent)
chain: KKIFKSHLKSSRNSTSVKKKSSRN

Variants of: B1
Test: protein stability index of a GFP-peptide fusion (GPS, HEK-293T) (PSI 1-6); higher = more stable;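 note: lentivirally expressed fusions sorted by FACS into six bins by GFP to DsRed ratio, PSI derived from sequencing read proportions per bin multiplied by bin number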
Settings: c terminus: a fixed tail appended
Assign protein stability index to each entry below.

Solved cases below.
I3K
4.18
K9R
4.27
S6N
4.57
R12D
4.43
K5Q
4.27

// for each variant in input: emit protein stability index
1. S14M
2. S16I
3. S10L
4. S11W

1: 3.98; 2: 3.84; 3: 4.02; 4: 3.36

// for each variant in input: emit protein stability index
1. V17Q
2. V17E

1: 4.06; 2: 3.99
